Origin of values: PubChem BioAssay (NCI)

test system: HCC-2998 colon; assay: NCI-60 one-dose screen, 48 h; conditions: 10 µM unless noted
About 83,000 compounds went through this panel and 20% of them were active in at least one assay; those are over-represented in the sample as a whole. Active and inactive are the calls of the source. The calls were made as follows: active = growth percent below 10; inactive = the rest.
Choose one outcome from this list and give only that: active, inactive

Some solved cases for reference:
MOLECULE	CATEGORY
Cc1ccc(C(=O)Nc2nc3c(s2)CN(Cc2ccccc2)CC3)cn1	inactive
CCCCCCCCN(CCCCCCCC)CC(O)c1cc(Cl)ccc1OC (stereo not given)	inactive
O=C(N/N=C/c1ccc(O)cc1O)c1cccc(Nc2ccnc(C(F)(F)F)c2)c1	inactive
Cc1cc(N2CCCCC2)nc(NCc2cc(Nc3ccnc4cc(Cl)ccc34)ccc2F)n1	active
c1cc(NCCCCN2CCOCC2)c2ccc3c(ccc4c(NCCN5CCOCC5)ccnc43)c2n1	inactive
COc1cc(C=O)ccc1Oc1ccc([N+](=O)[O-])cc1[N+](=O)[O-]	inactive

Prompt: I would be grateful if you could indicate the recorded call for `Cn1c(=O)c2c(nc(Nc3cc(=O)[nH]c(=O)[nH]3)n2Cc2ccccc2)n(C)c1=O` .
Completion: inactive

Prompt: I would be grateful if you could indicate the recorded call for CCCCC1COc2cccc3c2N1C=C/C3=C\C(=O)N(C)c1cccc(Cl)c1 (stereo not given) .
Completion: inactive

Prompt: I would be grateful if you could indicate the recorded call for `O=S(=O)(Nc1cc(Sc2cccc3cccnc23)c(O)c2ccccc12)c1ccc(F)cc1` .
Completion: inactive

Prompt: I would be grateful if you could indicate the recorded call for `O=C(/C=C/c1cccs1)Nc1ncc(Cc2ccc(Cl)c(Cl)c2)s1` .
Completion: inactive

Prompt: I would be grateful if you could indicate the recorded call for `COc1cc(/C=C2\C(=O)N(CCCCn3c4ccccc4c(=O)c4ccccc43)c3ccccc32)cc(OC)c1O` .
Completion: inactive

Prompt: I would be grateful if you could indicate the recorded call for C=C(C)[C@@H]1CC[C@]2(C(=O)O)CC[C@]3(C)[C@H](CC[C@@H]4[C@@]5(C)CCC(N)C(C)(C)[C@@H]5CC[C@]43C)[C@@H]12 (stereo not given in full) .
Completion: inactive

Prompt: I would be grateful if you could indicate the recorded call for `CCCNNC(=O)/C=C/c1ccc(CNCCc2c(C)[nH]c3ccccc23)cc1` .
Completion: inactive

Prompt: I would be grateful if you could indicate the recorded call for `c1ccc(Cc2cccc[n+]2C(c2ccccc2)c2ccccc2)cc1` .
Completion: inactive

Prompt: I would be grateful if you could indicate the recorded call for `C=CCOc1ccc(/C=C2\SC(=S)N(CCc3ccc(O)cc3)C2=O)cc1` .
Completion: inactive

Prompt: I would be grateful if you could indicate the recorded call for `CCOC(=O)c1cc2c(n1Cc1cc(OC)cc(OC)c1Br)-c1nc(NC(C)=O)sc1CCC2` .
Completion: inactive

Prompt: I would be grateful if you could indicate the recorded call for `CCOc1ccccc1NC(=O)c1cc2ccccc2cc1O` .
Completion: inactive

Prompt: I would be grateful if you could indicate the recorded call for `CN1C(=O)/C(=C/c2ccc(C(=O)Nc3ncc(Cc4ccccc4Cl)s3)cc2)SC1=S` .
Completion: inactive

Prompt: I would be grateful if you could indicate the recorded call for `COC(=O)c1nc(-c2ccc(C)cc2)oc1Sc1ccc(C)cc1` .
Completion: inactive

Prompt: I would be grateful if you could indicate the recorded call for `O=C(NCc1cccnc1)/C(=C\c1ccc(Br)cc1)S(=O)(=O)c1ccccc1` .
Completion: active

* * *

tested on: SK-MEL-5 melanoma; experiment: NCI-60 one-dose screen, 48 h; details: 10 µM unless noted
About 83,000 compounds went through this panel and 20% of them were active in at least one assay; those are over-represented in the sample as a whole. Activity calls are given as the source filed them. How the source made its calls: active means growth percent below 10; inactive means the rest.
Choose one outcome from this list and give only that: active, inactive

COMPOUND	SYSTEM NAME	CATEGORY
COc1cccc(NC(=O)c2sc3nc(C)c(C(O)c4ccccc4)cc3c2N)c1 (stereo unspecified)	SK-MEL-5 melanoma	active
COc1ccc2nc3cc(Cl)ccc3c(NCCCNCCC(C)O)c2c1 (stereo unspecified)	SK-MEL-5 melanoma	active
O=S(=O)(Nc1cc(Sc2cccc3cccnc23)c(O)c2ccccc12)c1ccc(F)cc1	SK-MEL-5 melanoma	active
Cc1cc(N2CCCCC2)nc(NCc2cc(Nc3ccnc4cc(Cl)ccc34)ccc2F)n1	SK-MEL-5 melanoma	active
Cc1nc2cccc(NCCCCC(=O)NO)c2c(=O)n1-c1ccccc1	SK-MEL-5 melanoma	inactive

Prompt: I would be grateful if you could indicate the recorded call for `COc1cc(F)c(/C=C/c2cc(/C=C/c3cc(OC)c(OC)cc3F)n(-c3cc(F)cc(F)c3)n2)cc1OC` .
Completion: inactive

Prompt: I would be grateful if you could indicate the recorded call for `COc1cc(/C=C2\C(=O)N(CCCCn3c4ccccc4c(=O)c4ccccc43)c3ccccc32)cc(OC)c1O` .
Completion: inactive

Prompt: I would be grateful if you could indicate the recorded call for C#CCOc1cccc(Nc2ncc3ncn(C4CCN(C(=O)CCl)C4)c3n2)c1 (stereo unspecified) .
Completion: inactive

Prompt: I would be grateful if you could indicate the recorded call for `Cc1nn(-c2nc(-c3cc4ccccc4oc3=O)cs2)c(C)c1N=Nc1ccccc1` .
Completion: inactive

Prompt: I would be grateful if you could indicate the recorded call for `CCn1cc(C(=O)NN=C2CCCC2)c(=O)c2ccc(C)nc21` .
Completion: inactive

Prompt: I would be grateful if you could indicate the recorded call for `COc1ccc2c(O)c(/C=C3\N=Nc4nc(C)ccc43)oc2c1CC1CCNCC1` .
Completion: inactive

Prompt: I would be grateful if you could indicate the recorded call for `NCCOCCOc1ccccc1` .
Completion: inactive

Prompt: I would be grateful if you could indicate the recorded call for Cc1nc2sc(C(=O)Nc3cccc4ncccc34)c(N)c2cc1C(C)O (stereo unspecified) .
Completion: inactive

Prompt: I would be grateful if you could indicate the recorded call for `COc1cc(OC)cc(-c2ccc(-c3ccc(C(=N)N)cn3)s2)c1` .
Completion: inactive

Prompt: I would be grateful if you could indicate the recorded call for `O=C(CCl)n1nnnc1Cc1ccccc1` .
Completion: inactive

Prompt: I would be grateful if you could indicate the recorded call for `NC(N)=NC(N)=NCCCc1ccco1` .
Completion: inactive

Prompt: I would be grateful if you could indicate the recorded call for `Cc1cccc(-c2nnc(SCC(=O)Nc3ncc(Cc4ccccc4)s3)n2N2C(=O)CSC2=S)c1` .
Completion: inactive

Prompt: I would be grateful if you could indicate the recorded call for `Nc1[nH]nc(Nc2ccccc2)c1-c1nc2ccccc2s1` .
Completion: inactive

Prompt: I would be grateful if you could indicate the recorded call for `N#C/C(=C\c1ccc(Br)cc1)n1nnc2c(F)cccc21` .
Completion: active

Prompt: I would be grateful if you could indicate the recorded call for `[2H]C([2H])([2H])Oc1cccc(/C=C/C(=O)/C=C(/C=C/c2cccc(OC([2H])([2H])[2H])c2OC([2H])([2H])[2H])OB(F)F)c1OC([2H])([2H])[2H]` .
Completion: inactive

Prompt: I would be grateful if you could indicate the recorded call for Cc1nc2sc(C(=O)Nc3cccc(Cl)c3C)c(N)c2cc1C(O)c1ccccc1 (stereo unspecified) .
Completion: active

* * *

test system: UACC-62 melanoma; test: NCI-60 one-dose screen, 48 h; settings: 10 µM unless noted
About 83,000 compounds went through this panel and 20% of them were active in at least one assay; those are over-represented in the sample as a whole. Active and inactive are the calls of the source. How the source made its calls: active means growth percent below 10; inactive means the rest.
Choose one outcome from this list and give only that: active, inactive

MOLECULE	SYSTEM NAME	CATEGORY
C=C[C@]1(C)C=C2CC[C@@H]3C(C)(C)C(=O)CC[C@@]3(C)[C@@H]2CC1	UACC-62 melanoma	inactive
Cc1ccc(/C=C/c2c(C(=O)/C=C/c3ccccc3)c(C)nc3ccccc23)cc1	UACC-62 melanoma	inactive
NNCCc1ccccc1	UACC-62 melanoma	inactive
COC(=O)c1nc(-c2ccc(C)cc2)oc1S(=O)(=O)c1ccc(Cl)cc1	UACC-62 melanoma	inactive

Prompt: I would be grateful if you could indicate the recorded call for `CCOC(=O)CCCn1c(-c2ccccc2)cc(-c2ccccc2)c(C#N)c1=O` .
Completion: inactive

Prompt: I would be grateful if you could indicate the recorded call for `C=CCNC(=O)Cc1c(-c2ccc(OC)cc2)oc2c(OC)c3c(c(OC)c12)OCO3` .
Completion: inactive

Prompt: I would be grateful if you could indicate the recorded call for `N=c1c2c(-c3ccccc3)c(-c3ccccc3)oc2ncn1NC(=O)c1cccnc1` .
Completion: inactive

Prompt: I would be grateful if you could indicate the recorded call for `COc1ccc(/C=C2\COc3ccc(O)c(O)c3C2=O)c(OC)c1OC` .
Completion: active

* * *

system: HOP-92 NSCLC; assay: NCI-60 one-dose screen, 48 h; settings: 10 µM unless noted
Compounds without any hit were thinned out: in the full panel of roughly 83,000, 20% have a hit. Active and inactive are the calls of the source. Rule for the calls: active = growth percent below 10; inactive = the rest.
Choose one outcome from this list and give only that: active, inactive

MOLECULE	SYSTEM NAME	CATEGORY
Cc1nc2cccc(NCCCCC(=O)NO)c2c(=O)n1-c1ccccc1	HOP-92 NSCLC	inactive
NC(N)=NC(N)=NCCCc1ccco1	HOP-92 NSCLC	inactive
COc1cc(NS(=O)(=O)C(C)C)cc(-c2cc(-c3ccc(N4CCNCC4)cc3)cnc2N)c1	HOP-92 NSCLC	inactive
Cc1oc2c(Cc3ccc(NC(=O)c4ccc(Cl)cc4)cc3)ncnc2c1C(=O)NO	HOP-92 NSCLC	inactive
COC(=O)/C=C1/SC(=Nc2ccc([N+](=O)[O-])cc2)N(CCc2c[nH]c3ccccc23)C1=O	HOP-92 NSCLC	inactive
O=C1C(=C(O)c2ccccc2)C(=O)c2ccccc21	HOP-92 NSCLC	inactive

Here is the next item to consider.
Prompt: I would be grateful if you could indicate the recorded call for `Cc1ccc(S(=O)(=O)OC[C@@]2(C)CC[C@]3(C)CC[C@]4(C)C(=CC[C@@H]5[C@@]6(C)CCCNC(C)(C)[C@@H]6CC[C@]54C)[C@@H]3C2)cc1` .
Completion: active
